These data points were gathered from patent US11168094B2.

tested_target: TSLP-TSLPR interaction (Homo sapiens)
Construct: made in house
Sequence (Q969D9 29-159): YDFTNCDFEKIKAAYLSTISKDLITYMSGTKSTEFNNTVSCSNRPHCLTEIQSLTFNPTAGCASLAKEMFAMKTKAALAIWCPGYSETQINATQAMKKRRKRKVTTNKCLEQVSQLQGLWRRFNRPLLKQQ
assay_overview: ELISA-based TSLP-TSLPR interaction assay
Type: binding
experimental_context: compound 0.1 mM; FLAG-TSLP / TSLPR-His ELISA, OD 450 nm
Description: To this end, home-made FLAG-TSLP protein and TSLPR-His protein were used to establish an ELISA-based TSLP-TSLPR interaction assay for measuring reactions with HRP. The inhibitory activities of the inventive compounds were evaluated by the interaction assay. ELISA assay was conducted using an Ni-NTA HisSorb plate (Qiagen, Germany). […] Optical densities (ODs) were measured at 450 nm using a microplate spectrophotometer. […]
Exercise: state measured inhibition at 100 µM for each of the molecules provided.
Answers are plain numbers, in %.

Please go through the list and note inhibition at 100 µM for each molecule.
1. CN(C)CCn1c(=O)c2nc(-c3ccc(F)cc3)oc2c2ccccc21
2. CN(C)CCOc1nc2ccccc2c2oc(-c3ccccc3)nc12
3. COc1ccc(-c2nc3c(=O)n(CCN(C)C)c4ccccc4c3o2)cc1

Reply text:
1: 17.7; 2: 27.8; 3: 25.8

Please go through the list and note inhibition at 100 µM for each molecule.
1. CN(C)CCn1c(=O)c2nc(-c3ccccc3)oc2c2ccccc21
2. CN(C)CCn1c(=O)c2nc(-c3ccc(Cl)cc3)oc2c2ccccc21
3. CN(C)CCn1c(=O)c2nc(-c3ccc(C(F)(F)F)cc3)oc2c2ccccc21

Reply text:
[26.7, 28.8, 23.2]

----------
Exercise: state measured inhibition at 3 µM for each of the compounds provided.
tested_target: IL-33 (Homo sapiens)
Sequence (O95760 95-270): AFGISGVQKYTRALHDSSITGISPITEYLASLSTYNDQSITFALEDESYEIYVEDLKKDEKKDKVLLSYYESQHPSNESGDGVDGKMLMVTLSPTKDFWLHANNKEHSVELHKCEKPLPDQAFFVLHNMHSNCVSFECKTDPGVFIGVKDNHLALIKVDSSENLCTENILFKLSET
assay_overview: Inhibition of IL-6 secretion by IL-33 inhibition in HMC-1 cells (IL-6 ELISA)
Format: cell-based
experimental_context: HMC1; 3 μM; HMC-1 cells with IL-33, 24 h; negative values indicate increased IL-6 secretion
Please state the value followed by its unit.

Some compounds with known inhibition at 3 µM results, for comparison:
compound: CN(C)CCOc1nc2ccccc2c2oc(-c3ccc(C(F)(F)F)cc3)nc12 [Compound 10]
tested_target: IL-33 (Homo sapiens)
inhibition at 3 µM: 51.3%
//
compound: CN(C)CCn1c(=O)c2nc(-c3ccc(C(F)(F)F)cc3)oc2c2ccccc21 [Compound 5]
tested_target: IL-33 (Homo sapiens)
inhibition at 3 µM: 28.2%
//
compound: CN(C)CCOc1nc2ccccc2c2oc(-c3ccccc3)nc12 [Compound 7]
tested_target: IL-33 (Homo sapiens)
inhibition at 3 µM: 35.6%
//
compound: CN(C)CCn1c(=O)c2nc(-c3ccc(F)cc3)oc2c2ccccc21 [Compound 3]
tested_target: IL-33 (Homo sapiens)
inhibition at 3 µM: 29.8%
//
compound: CN(C)CCn1c(=O)c2nc(-c3ccc(Cl)cc3)oc2c2ccccc21 [Compound 4]
tested_target: IL-33 (Homo sapiens)
inhibition at 3 µM: 29.7%

Please go through the list and note inhibition at 3 µM for each compound.
1. COc1ccc(-c2nc3c(=O)n(CCN(C)C)c4ccccc4c3o2)cc1 [Compound 6]
2. CN(C)CCn1c(=O)c2nc(-c3ccccc3)oc2c2ccccc21 [Compound 2]

Reply text:
1: -57.8%; 2: -11.8%

----------
tested_target: TSLP-TSLPR interaction (Homo sapiens)
Construct: made in house
assay_overview: ELISA-based TSLP-TSLPR interaction assay
Format: binding
experimental_context: compound 0.3 mM; FLAG-TSLP / TSLPR-His ELISA, OD 450 nm
Procedure: To this end, home-made FLAG-TSLP protein and TSLPR-His protein were used to establish an ELISA-based TSLP-TSLPR interaction assay for measuring reactions with HRP. The inhibitory activities of the inventive compounds were evaluated by the interaction assay. ELISA assay was conducted using an Ni-NTA HisSorb plate (Qiagen, Germany). […] Optical densities (ODs) were measured at 450 nm using a microplate spectrophotometer. […]
Values of inhibition at 300 µM greater than or equal to 50% map to 1; values below map to 0.

molecule: CN(C)CCn1c(=O)c2nc(-c3ccc(F)cc3)oc2c2ccccc21
tested_target: TSLP-TSLPR interaction (Homo sapiens)
assigned_category: 0

molecule: COc1ccc(-c2nc3c(=O)n(CCN(C)C)c4ccccc4c3o2)cc1
tested_target: TSLP-TSLPR interaction (Homo sapiens)
assigned_category: 1

molecule: CN(C)CCn1c(=O)c2nc(-c3ccc(C(F)(F)F)cc3)oc2c2ccccc21
tested_target: TSLP-TSLPR interaction (Homo sapiens)
assigned_category: 0

molecule: CN(C)CCOc1nc2ccccc2c2oc(-c3ccccc3)nc12
tested_target: TSLP-TSLPR interaction (Homo sapiens)
assigned_category: 1

Inquiry: Kindly determine if inhibition at 300 µM recorded for CN(C)CCn1c(=O)c2nc(-c3ccc(Cl)cc3)oc2c2ccccc21 is above or exactly 50%.
Reply text: 0
